Data credit: DBAASP

Here the recorded MIC is given for each entry.
tested on: Pseudomonas aeruginosa Ps4; assay: ≥ marks a high value that may be exact or a test limit, other limits are often not marked, values filed in µg/mL are converted to µM

Known results for molecules:
{"MOLECULE": "CC[C@H](C)[C@H](NC(=O)[C@H](CC(N)=O)NC(=O)[C@H](CCCN=C(N)N)NC(=O)[C@@H]1CCCN1C(=O)[C@H](Cc1c[nH]c2ccccc12)NC(=O)[C@@H](N)Cc1ccccc1)C(=O)N[C@@H](CCCN=C(N)N)C(=O)N[C@@H](CCCCN)C(=O)N[C@H](C(=O)N[C@@H](CCCN=C(N)N)C(N)=O)C(C)C [FWPRNIRKVR]", "MIC": "≥ 182 µM"}
{"MOLECULE": "CC[C@H](C)[C@H](NC(=O)[C@H](CC(N)=O)NC(=O)[C@H](CCCN=C(N)N)NC(=O)[C@H](CCC(N)=O)NC(=O)[C@H](Cc1c[nH]c2ccccc12)NC(=O)[C@H](Cc1ccccc1)NC(=O)[C@@H](N)CS)C(=O)N[C@@H](CCCN=C(N)N)C(=O)N[C@@H](CCCCN)C(=O)N[C@H](C(=O)N[C@@H](CCCN=C(N)N)C(=O)N[C@@H](CS)C(N)=O)C(C)C [CFWQRNIRKVRC]", "MIC": "≥ 155 µM"}
{"MOLECULE": "CC[C@H](C)[C@H](NC(=O)[C@H](CC(N)=O)NC(=O)[C@H](CCCN=C(N)N)NC(=O)[C@H](CCC(N)=O)NC(=O)[C@H](Cc1c[nH]c2ccccc12)NC(=O)[C@@H](N)Cc1ccccc1)C(=O)N[C@@H](CCCN=C(N)N)C(=O)N[C@@H](Cc1ccccc1)C(=O)N[C@@H](CCCN=C(N)N)C(=O)N[C@@H](CCCN=C(N)N)C(N)=O [FWQRNIRFRR]", "MIC": "≥ 250 µM"}

Please look at the following molecule next.
Look up MIC for this molecule: CC[C@H](C)[C@H](NC(=O)[C@H](CC(N)=O)NC(=O)[C@H](CCCN=C(N)N)NC(=O)[C@H](CCC(N)=O)NC(=O)[C@H](Cc1c[nH]c2ccccc12)NC(=O)[C@H](Cc1ccccc1)NC(=O)[C@@H](N)CCCN=C(N)N)C(=O)N[C@@H](CCCN=C(N)N)C(=O)N[C@@H](CCCCN)C(=O)N[C@@H](Cc1ccc(O)cc1)C(=O)N[C@@H](CCCN=C(N)N)C(N)=O [RFWQRNIRKYR]
≥ 154 µM

====

test system: Escherichia coli
VALUE_KIND: MIC (µM)
Numbers only; they are read as µM.

Test system Escherichia coli; read-out MIC; what value for CC[C@H](C)[C@H](N)C(=O)N[C@@H](CC(N)=O)C(=O)N[C@@H](Cc1c[nH]c2ccccc12)C(=O)N[C@@H](CCCCN)C(=O)N[C@@H](CCCCN)C(=O)N[C@H](C(=O)N[C@@H](Cc1ccccc1)C(=O)N[C@@H](CCC(N)=O)C(=O)N[C@@H](CCCCN)C(=O)N[C@H](C(=O)N[C@@H](CCCCN)C(=O)N[C@@H](CC(N)=O)C(=O)N[C@@H](CC(C)C)C(=O)N[C@H](C(N)=O)C(C)C)C(C)C)[C@@H](C)CC ?
8

====

test system: Staphylococcus aureus ATCC 6538
Quick reference for MIC among some compounds
Report only the number, with the unit µM understood.

A selection of reference data follows.
{"SMILES_INPUT": "CC[C@H](C)[C@H](NC(=O)CN)C(=O)N[C@@H](Cc1cnc[nH]1)C(=O)N[C@@H](CC(=O)O)C(=O)N[C@H](C(=O)N[C@@H](C)C(=O)N[C@@H](CCCCN)C(=O)N[C@@H](Cc1ccc(O)cc1)C(=O)NCC(=O)N[C@@H](CCCCN)C(=O)N1CCC[C@H]1C(=O)N[C@@H](CO)C(N)=O)[C@@H](C)CC", "UNIT_DESCRIPTOR": "µM", "MIC": 5}
{"SMILES_INPUT": "CC(C)C[C@H](NC(=O)[C@H](CC(C)C)NC(=O)[C@H](CCCCN)NC(=O)[C@H](CO)NC(=O)[C@H](CC(C)C)NC(=O)[C@H](C)NC(=O)[C@H](CCCCN)NC(=O)[C@H](Cc1ccccc1)NC(=O)[C@H](CC(C)C)NC(=O)[C@H](C)NC(=O)CNC(=O)[C@H](CC(C)C)NC(=O)[C@@H](N)Cc1ccccc1)C(=O)O", "UNIT_DESCRIPTOR": "µM", "MIC": 3.52}
{"SMILES_INPUT": "CC(C)C[C@H](NC(=O)[C@@H]1CCCN1C(=O)CNC(=O)[C@@H]1CCCN1C(=O)[C@H](CC(C)C)NC(=O)CN)C(=O)NCC(=O)N1CCC[C@H]1C(=O)N[C@@H](C)C(=O)NCC(=O)N1CCC[C@H]1C(=O)N[C@@H](CCCCN)C(=O)O", "UNIT_DESCRIPTOR": "µM", "MIC": 1330}

# input for lookup
Form entry - test system: Staphylococcus aureus ATCC 6538; read-out: MIC; compound: CC[C@H](C)[C@H](NC(=O)CNC(=O)[C@@H](N)Cc1c[nH]c2ccccc12)C(=O)N[C@@H](CCCN=C(N)N)C(=O)N[C@@H](CCCN=C(N)N)C(=O)N[C@H](C(=O)N[C@@H](CC(C)C)C(=O)N[C@@H](CCCCN)C(=O)N[C@@H](Cc1ccc(O)cc1)C(=O)NCC(=O)N[C@@H](CCCCN)C(=O)N[C@@H](CCCN=C(N)N)C(=O)N[C@@H](CO)C(=O)O)[C@@H](C)CC
4

====

Here's a batch of compounds along with measured MIC for Staphylococcus aureus ATCC 2592.
Output spec: scalar in µM, unitless text.

{"SMILES_INPUT": "CC[C@H](C)[C@H](N)C(=O)N[C@@H](CC(C)C)C(=O)NCC(=O)N1CCC[C@H]1C(=O)N[C@H](C(=O)N[C@H](C(=O)N[C@@H](CO)C(=O)N[C@H](C(=O)N[C@H](C(=O)NCC(=O)NCC(=O)N[C@H](C(=O)N[C@@H](CC(C)C)C(=O)NCC(=O)NCC(=O)N[C@@H](CC(C)C)C(=O)N[C@@H](CC(C)C)C(=O)N[C@@H](CCCCN)C(=O)N[C@@H](CC(N)=O)C(=O)N[C@@H](CC(C)C)C(N)=O)C(C)C)[C@@H](C)CC)[C@@H](C)O)[C@@H](C)CC)C(C)C", "ASSAY_TARGET": "Staphylococcus aureus ATCC 2592", "MIC (µM)": 2.33}
{"SMILES_INPUT": "CC[C@H](C)[C@H](NC(=O)[C@@H]1CCCN1C(=O)[C@H](Cc1ccccc1)NC(=O)[C@@H](N)Cc1ccccc1)C(=O)N[C@H](C(=O)NCC(=O)N[C@@H](CCCCN)C(=O)N[C@@H](CCCN=C(N)N)C(=O)N[C@@H](CC(C)C)C(=O)N[C@@H](Cc1ccc(O)cc1)C(=O)NCC(=O)N[C@@H](CC(C)C)C(=O)N[C@@H](CC(C)C)C(N)=O)C(C)C", "ASSAY_TARGET": "Staphylococcus aureus ATCC 2592", "MIC (µM)": 3.09}

Return reported MIC; argument: CC[C@H](C)[C@H](NC(=O)[C@@H]1CCCN1C(=O)[C@H](Cc1ccccc1)NC(=O)[C@@H](N)Cc1ccccc1)C(=O)N[C@H](C(=O)NCC(=O)N[C@@H](CCCCN)C(=O)N[C@@H](CC(C)C)C(=O)N[C@@H](CC(C)C)C(=O)N[C@@H](CO)C(=O)NCC(=O)N[C@@H](CC(C)C)C(=O)N[C@@H](CC(C)C)C(N)=O)C(C)C
5.34

====

test system: Pseudomonas aeruginosa LES400; assay: ≥ marks a high value that may be exact or a test limit, other limits are often not marked, values filed in µg/mL are converted to µM
Collected MIC values appear next to each entry.
Just the number please, in µM, no unit attached.

Please review the following examples before continuing.
{"SMILES_INPUT": "N=C(N)NCCC[C@H](NC(=O)[C@H](CCCNC(=N)N)NC(=O)[C@@H](N)Cc1ccccc1)C(=O)N[C@@H](Cc1c[nH]c2ccccc12)C(=O)N[C@@H](Cc1c[nH]c2ccccc12)C(=O)N[C@@H](CCCCN)C(=O)N[C@@H](Cc1c[nH]c2ccccc12)C(=O)N[C@@H](Cc1ccccc1)C(=O)N[C@@H](CCCCN)C(=O)O", "UNIT_DESCRIPTOR": "µM", "MIC": 2.85}
{"SMILES_INPUT": "NCCCC[C@H](NC(=O)[C@@H](N)CCCCN)C(=O)N[C@@H](CCCN=C(N)N)C(=O)N[C@@H](Cc1c[nH]c2ccccc12)C(=O)N[C@@H](Cc1c[nH]c2ccccc12)C(=O)N[C@@H](Cc1c[nH]c2ccccc12)C(=O)N[C@@H](Cc1c[nH]c2ccccc12)C(=O)N[C@@H](Cc1c[nH]c2ccccc12)C(=O)N[C@@H](CCCN=C(N)N)C(=O)O", "UNIT_DESCRIPTOR": "µM", "MIC": 21.1}

With those in mind, consider the next compound.
For CC[C@H](C)[C@H](NC(=O)[C@H](CCCN=C(N)N)NC(=O)[C@H](CCCCN)NC(=O)[C@@H](NC(=O)[C@H](Cc1c[nH]c2ccccc12)NC(=O)[C@H](Cc1c[nH]c2ccccc12)NC(=O)[C@H](Cc1c[nH]c2ccccc12)NC(=O)[C@H](CCCN=C(N)N)NC(=O)[C@@H](N)CC(C)C)[C@@H](C)CC)C(=O)O , what is its reported MIC?
13.3
